- tested.system: interaction between p53 and MDM2 proteins (recombinant GST-tagged MDM2 and p53 peptide) (Homo sapiens)
- method.description: HTRF assay of inhibition of the p53-MDM2 interaction (GST-MDM2 / biotinylated p53 peptide)
- experimental.parameters: 90 nM biotinylated p53 peptide, 160 ng/ml GST-MDM2, 37° C. 1 h
Structures can show the parent of a compound that is named as a salt.
For each of the compounds below, state its IC50.
One number for each entry, in nM.

Please state, for each entry, its recorded IC50.
1. CCOc1ccc(S(=O)(=O)NC(C)COC)cc1C1=NC(c2ccc(Cl)cc2)C(c2ccc(Cl)cc2)N1C(=O)N1CCN(CC(=O)NC)CC1 (stereo not shown)
2. CCOc1ccc(S(=O)(=O)N(CCOC)CCOC)cc1C1=NC(c2ccc(Cl)cc2)C(c2ccc(Cl)cc2)N1C(=O)N1CCNC(=O)C1 (stereo not shown)
3. CCOc1cc(Cl)c(C#N)cc1C1=N[C@@H](c2ccc(Cl)cc2)[C@@H](c2ccc(Cl)cc2)N1C(=O)N1CCNC(=O)C1
4. CCOc1cc(N(C(=O)N2CCNC(=O)C2)S(C)(=O)=O)ccc1C1=N[C@@H](c2ccc(Cl)cc2)[C@@H](c2ccc(Cl)cc2)N1C(=O)N1CCNC(=O)C1
5. CCOc1cc(C#CC(C)(C)C)ccc1C1=N[C@@H](c2ccc(Cl)cc2)[C@@H](c2ccc(Cl)cc2)N1C(=O)N1CCN(CC(=O)N2CCOCC2)CC1 [Example 405, hydrochloride]
6. CCOc1cc(NC(=O)C(C)(C)C)ccc1C1=N[C@@H](c2ccc(Cl)cc2)[C@@H](c2ccc(Cl)cc2)N1C(=O)N1CCNC(=O)C1
7. CCOc1cc(Cl)c(S(=O)(=O)N2CCCC2)cc1C1=N[C@@H](c2ccc(Cl)cc2)[C@@H](c2ccc(Cl)cc2)N1C(=O)N1CCN(CCS(C)(=O)=O)CC1 [Example 174, hydrochloride]

OUT:
[57, 57, 150, 310, 544, 160, 5]

* * *

- tested.system: interaction between p53 and MDM2 proteins (recombinant GST-tagged MDM2 and p53 peptide) (Homo sapiens, UniProt Q00987)
- Sequence (Q00987 whole entry): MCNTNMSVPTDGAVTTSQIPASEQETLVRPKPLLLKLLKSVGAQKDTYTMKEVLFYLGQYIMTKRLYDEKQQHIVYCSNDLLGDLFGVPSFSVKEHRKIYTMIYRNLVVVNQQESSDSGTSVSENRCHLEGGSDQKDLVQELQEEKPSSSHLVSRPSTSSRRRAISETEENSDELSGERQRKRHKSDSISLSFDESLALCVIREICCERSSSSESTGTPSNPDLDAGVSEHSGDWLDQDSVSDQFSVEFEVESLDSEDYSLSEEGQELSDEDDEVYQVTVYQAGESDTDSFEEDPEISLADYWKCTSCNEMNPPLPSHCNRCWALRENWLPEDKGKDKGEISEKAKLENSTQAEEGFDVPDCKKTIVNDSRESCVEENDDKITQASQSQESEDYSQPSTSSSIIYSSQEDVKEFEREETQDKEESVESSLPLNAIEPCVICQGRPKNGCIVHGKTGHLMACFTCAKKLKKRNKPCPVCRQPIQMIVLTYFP
- method.description: HTRF assay of inhibition of the p53-MDM2 interaction (GST-MDM2 / biotinylated p53 peptide)
- experimental.parameters: 90 nM biotinylated p53 peptide, 160 ng/ml GST-MDM2, 37° C. 1 h
Structures can show the parent of a compound that is named as a salt.
endpoint.label: IC50 (nM)
Give bare numbers, in nM.

Worked examples follow.
molecule=CCOc1cc(Cl)c(S(N)(=O)=O)cc1C1=N[C@@H](c2ccc(Cl)cc2)[C@@H](c2ccc(Cl)cc2)N1C(=O)N1CCN(CC(=O)N2CCOCC2)CC1 numeric_readout=9
molecule="CCOc1cc(Cl)c(S(=O)(=O)N2CCCCC2)cc1C1=N[C@@H](c2ccc(Cl)cc2)[C@@H](c2ccc(Cl)cc2)N1C(=O)N1CCN(CC(=O)N2CCOCC2)CC1 [Example 175, hydrochloride]" numeric_readout=5

Now consider the entry below.
IN: // returns reported IC50 for input `CCOc1cc(C#N)ccc1C1=N[C@@H](c2ccc(Cl)cc2)[C@@H](c2ccc(Cl)cc2)N1C(=O)N1CCN(CCO)CC1`
OUT: 9

The measurements presented in this section are drawn from patent US7579368B2.
